assay-system: UniProtKB P23977
Sequence (P23977 whole entry): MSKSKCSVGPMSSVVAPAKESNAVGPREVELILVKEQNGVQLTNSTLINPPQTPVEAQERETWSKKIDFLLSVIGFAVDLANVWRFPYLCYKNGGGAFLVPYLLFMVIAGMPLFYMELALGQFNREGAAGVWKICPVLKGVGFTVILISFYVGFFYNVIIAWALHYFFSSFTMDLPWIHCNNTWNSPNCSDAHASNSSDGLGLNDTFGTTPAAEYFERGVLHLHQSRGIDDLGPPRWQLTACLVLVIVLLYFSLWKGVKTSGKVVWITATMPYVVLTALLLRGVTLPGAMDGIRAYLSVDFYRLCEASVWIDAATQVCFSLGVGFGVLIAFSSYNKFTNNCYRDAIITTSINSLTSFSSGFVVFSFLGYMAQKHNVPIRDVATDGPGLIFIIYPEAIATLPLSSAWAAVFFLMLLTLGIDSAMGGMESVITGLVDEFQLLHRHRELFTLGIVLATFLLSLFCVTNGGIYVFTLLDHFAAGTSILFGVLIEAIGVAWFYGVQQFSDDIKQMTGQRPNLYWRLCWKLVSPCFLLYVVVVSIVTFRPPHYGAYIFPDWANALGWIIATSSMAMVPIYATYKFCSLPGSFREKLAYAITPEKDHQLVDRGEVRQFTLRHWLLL
experiment-description: Inhibition of [3H]DA Uptake at Dopamine transporter in rat cortex was measured by liquid scintillation spectrometry
Format: tissue-based
pKi: −log10 of the molar value.
parameter: pKi

In [3]: df
Out[3]:
                                   molecule  recorded_measurement
0  CN1CCC(O)(c2ccccc2)C(C(=O)c2ccccc2)C1 (configuration not stated)                  5.59
1  Cc1ccc(C(=O)C2CN(C)CCC2(O)c2ccc(C)cc2)cc1 (configuration not stated)                  6.44

----------
Readings of pKi for the listed compounds
assay-system: Norepinephrine transporter (Rattus norvegicus, UniProt Q9WTR4)
Sequence (Q9WTR4 whole entry): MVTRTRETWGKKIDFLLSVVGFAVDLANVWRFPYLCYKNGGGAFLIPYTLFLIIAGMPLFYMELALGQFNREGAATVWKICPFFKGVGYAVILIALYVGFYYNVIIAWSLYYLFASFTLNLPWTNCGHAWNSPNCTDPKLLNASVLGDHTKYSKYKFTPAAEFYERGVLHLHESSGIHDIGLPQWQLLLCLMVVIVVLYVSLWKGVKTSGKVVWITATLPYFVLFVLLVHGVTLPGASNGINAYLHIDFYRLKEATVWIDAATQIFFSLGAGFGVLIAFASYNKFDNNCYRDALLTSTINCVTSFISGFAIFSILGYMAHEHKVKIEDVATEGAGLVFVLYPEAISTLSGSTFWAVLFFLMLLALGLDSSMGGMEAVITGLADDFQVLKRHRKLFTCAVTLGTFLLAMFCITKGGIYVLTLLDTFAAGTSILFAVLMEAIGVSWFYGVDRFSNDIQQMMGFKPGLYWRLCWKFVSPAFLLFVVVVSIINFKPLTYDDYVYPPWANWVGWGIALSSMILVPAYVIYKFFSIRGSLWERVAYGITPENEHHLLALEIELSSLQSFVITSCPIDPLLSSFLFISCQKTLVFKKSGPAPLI
experiment-description: Compound was tested for Inhibition of [3H]NE Uptake in rat parietal/occipital cortex
pKi: −log10 of the molar value.
parameter: pKi

>>> df
                                   compound  parameter  recorded_measurement
0  Cc1ccc(C(=O)C2CN(C)CCC2(O)c2ccc(C)cc2)cc1 (configuration not stated)        pKi                  5.41
1  CN1CCC(O)(c2ccc(Cl)c(Cl)c2)C(C(=O)c2ccc(Cl)c(Cl)c2)C1 (configuration not stated)        pKi                  6.75
